# study-target: Cyclin-dependent kinase 1 (Homo sapiens, UniProt P06493)
# Sequence (P06493 whole entry): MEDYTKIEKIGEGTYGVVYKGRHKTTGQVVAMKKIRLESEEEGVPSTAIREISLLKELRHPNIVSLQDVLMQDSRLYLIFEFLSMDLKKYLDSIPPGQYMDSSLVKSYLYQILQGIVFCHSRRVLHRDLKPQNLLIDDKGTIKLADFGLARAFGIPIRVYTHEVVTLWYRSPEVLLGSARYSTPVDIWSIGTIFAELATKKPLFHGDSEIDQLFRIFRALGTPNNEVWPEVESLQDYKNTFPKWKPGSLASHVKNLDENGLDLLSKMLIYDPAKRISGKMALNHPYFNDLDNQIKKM
pIC50: −log10 of the molar value.
Please note: Condition met applies when pIC50 is 6 or greater, and Condition not met applies otherwise.

• COc1ccc(CNc2nc(NC3(CO)CCCC3)nc3c2NCN3C(C)C)cc1 = Condition met
• CCC(C)[C@@H](CO)Nc1nc(Nc2cccc(Cl)c2)c2c(n1)N(C(C)C)CN2 (stereo partly specified) = Condition met
• COc1ccccc1Nc1nc(NCCO)nc2c1NCN2C(C)C = Condition not met

* * *

The reader will find reported pIC50 values listed item by item below.
# study-target: Cyclin-dependent kinase 1 (Homo sapiens, UniProt P06493)
# experiment-notes: Inhibition Assay
# Description: Inhibition assay using CDK1/cyclin B.
pIC50: −log10 of the molar value.
parameter: pIC50

- CC(C)N1CNc2c(Nc3ccc4ccccc4c3)nc(NCCO)nc21: 6.37
- CC(C)N1CNc2c(Nc3cccc(Cl)c3)nc(N[C@H](CO)c3ccccc3)nc21: 6.10
- COc1ccc(CNc2nc(N(CCO)CCCO)nc3c2NCN3C(C)C)cc1: 6.60

* * *

Assay system Cyclin-dependent kinase 1 (Homo sapiens, UniProt P06493); read-out recorded as IC50.
parameter: IC50 (µM)

* CC(C)N1CNc2c(Nc3cccc(Cl)c3)nc(N(CCO)Cc3ccccc3)nc21 | 5
* COc1ccc(CNc2nc(NCCO)nc3c2NCN3C(C)C)cc1 | 0.7
* COc1ccc(CNc2nc(N[C@@H](CO)CC(C)C)nc3c2NCN3C(C)C)cc1 | 0.1
* CC(C)N1CNc2c(Nc3cccc(Cl)c3)nc(N[C@H]3Cc4ccccc4[C@H]3O)nc21 | 5

* * *

pIC50 data for UniProt:P06493 follow.
pIC50: −log10 of the molar value.
parameter: pIC50

- CC(C)N1CNc2c(Nc3cccc(Cl)c3)nc(N[C@H](CO)C(C)(C)C)nc21: 5.64
- CC(C)[C@H](CO)Nc1nc(Nc2ccc(Cl)c(C(=O)O)c2)c2c(n1)N(C(C)C)CN2: 7.52
- CC(C)N1CNc2c(NCCNc3ccccc3)nc(N3CCCCC3CCO)nc21 (stereo not given): 5.82
- COc1ccc(CNc2nc(N(CCN(C)C)Cc3ccccc3)nc3c2NCN3C(C)C)cc1: 5.30
- CCN(CCO)c1nc(NCc2ccc(OC)cc2)c2c(n1)N(C(C)C)CN2: 5.92
- COc1ccc(CNc2nc(N(C)CC(O)c3ccccc3)nc3c2NCN3C(C)C)cc1 (stereo not given): 6.00
- CC(C)[C@H](CO)Nc1nc(Nc2ccc(Cl)cc2)c2c(n1)N(C(C)C)CN2: 7.10
- CC(C)N1CNc2c(NCc3ccc4ccccc4c3)nc(N3CCCCC3CCO)nc21 (stereo not given): 5.92
- COc1ccc(CNc2nc(N3CCN(C)CC3)nc3c2NCN3C(C)C)cc1: 4.97

* * *

The next entries give measured IC50 for Cyclin-dependent kinase 1 (Homo sapiens, UniProt P06493).
parameter: IC50

• CC(C)N1CNc2c(Nc3ccc(Cl)cc3)nc(N3CCCCC3CCO)nc21 (stereo not drawn) = 0.79 µM
• COc1ccc(CNc2nc(NCC(O)CO)nc3c2NCN3C(C)C)cc1 (stereo not drawn) = 1.3 µM
• CCCCNc1nc(N2CCCCC2CCO)nc2c1NCN2C(C)C (stereo not drawn) = 1.3 µM

The reported numbers originate from BindingDB's records for doi:10.1016/S1074-5521(99)80048-9.
